Reference source: the RNAGym collection of RNA variant scans (doi:10.7554/elife.80360)

B1: CPEB3 Ribozyme (parent)
chain: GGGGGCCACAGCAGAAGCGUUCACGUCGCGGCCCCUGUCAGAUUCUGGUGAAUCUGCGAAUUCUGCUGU

- Variants of: B1
- Run Description: self-cleavage, relative activity (ratio to wild type); higher = more cleavage; co-transcriptional
Please use the following self-cleavage ranges when assigning a class: bottom bin (below 0.2), middle bin (0.2 to below 0.8), top bin (0.8 or more)

| Variant Spec | Assigned Label |
| --- | --- |
| G1A C6U | bottom bin |
| G30C C35G | bottom bin |
| G19U A23U | middle bin |
| A52U C63G | middle bin |
| U44A U49A | top bin |
| C7U C24A | middle bin |
| A16C U49A | middle bin |
| G11C C22U | bottom bin |
| C18U U36C | middle bin |
| C7U A8U | top bin |
| A42G C66U | top bin |
| A13U G17U | bottom bin |
| C29G G56U | middle bin |
| G19U U69C | top bin |
| C24G A51C | middle bin |
| U44C A52C | top bin |
| G19C G56A | bottom bin |
| C18A A60U | bottom bin |
| C24A G48A | middle bin |
| G2U C35A | middle bin |
| G19C C33U | bottom bin |
| U20G G68C | middle bin |
| G47A U62C | top bin |
| C45U U55G | middle bin |
| A15C G17A | bottom bin |
| A15C U44G | middle bin |
| G5C U21C | bottom bin |
| G3C G56U | bottom bin |
| C6A C9G | top bin |
| G58U G68U | top bin |
| A16G U53C | middle bin |
| U53C C63A | middle bin |
| C32G U38G | middle bin |
| C39A U46G | top bin |
| C7A C27U | bottom bin |
| C39A C45A | middle bin |
| C33A C34G | middle bin |
| A23G G50C | top bin |
| G1A G68U | bottom bin |
| G3A G68U | top bin |
| G14C A23C | middle bin |
| G3C U21A | bottom bin |
| G5C A23G | bottom bin |
| C12G C54A | middle bin |
| U20A | bottom bin |
| G3A C24A | bottom bin |
| C6A U64G | middle bin |
| A52U G68U | top bin |
| G3A C9A | top bin |
| U46G U53G | top bin |
| C12G C22U | bottom bin |
| U26A G37U | middle bin |
| C24A C29G | bottom bin |
| G2A A52G | middle bin |
| G48U C66A | top bin |
| G14U G17U | bottom bin |
| C6G A16U | bottom bin |
| G30U A42U | middle bin |
| G19U G25U | bottom bin |
| G4C G68U | top bin |
| C22U C63U | middle bin |
| C6G G47C | middle bin |
| U26A G47A | top bin |
| A8G G28A | bottom bin |
| G41U C54A | top bin |
| G56U A59G | top bin |
| G11A U44G | middle bin |
| C24A U44G | middle bin |
| U38C A42U | top bin |
| A16G C29U | bottom bin |
| U43G U55A | middle bin |
| A52C U64G | top bin |
| G65U C66A | middle bin |
| U64G C66U | middle bin |
| G4A C63U | top bin |
| U21C C29G | middle bin |
| A13U G25A | bottom bin |
| U67G U69C | top bin |
| U26A A52C | top bin |
| G50A U69C | top bin |
| C54G G68C | top bin |
| G1U C39A | bottom bin |
| G1U U62C | bottom bin |
